Give inhibition for every item shown.
Target: Cytoplasmic tyrosine-protein kinase BMX (Homo sapiens);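 further: reported value is the mean percent inhibition of BMX, from the GSK PKIS kinase inhibitor screen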
Settings: at 1 µM
Give bare numbers, in %.

Give me inhibition for each of these compounds, listed below.
1. c1cnn2ncc(-c3ccnc(Nc4ccc5c(c4)OCCO5)n3)c2c1
2. CN1CCC(C(=O)Nc2n[nH]c3nnc(-c4ccccc4)cc23)CC1
3. Nc1nc(-c2ccccn2)c(-c2ccc3ncccc3n2)s1
4. Cc1nn(C)c2cc(N(C)c3ccnc(Nc4cccc(S(N)(=O)=O)c4)n3)ccc12

Out:
1. 14.5
2. 3.87
3. 3.73
4. 35.1

----------
Biological target: Serine/threonine-protein kinase Nek6 (Homo sapiens);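 further: values are the mean percent inhibition of NEK6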
Settings: at 0.1 µM
Give inhibition for every item shown.
One number for each entry, in %.

Worked set:
> print(dat)
                               smiles.entry  test.result
1  CS(=O)(=O)CCNCc1ccc(-c2ccc3ncnc(Nc4ccc(OCc5ccccc5)c(Cl)c4)c3c2)o1         3.37
2  CCc1cccc(NC(=O)Nc2ccc(Oc3ccc4nc(NC(=O)OC)[nH]c4c3)cc2)c1         0.58
3  O=C(Nc1n[nH]c2nc(-c3ccco3)c(Br)cc12)C1CC1         3.21
4  Nc1ncnc2occ(-c3ccc(NC(=O)Nc4cc(C(F)(F)F)cc(C(F)(F)F)c4)cc3)c12        -0.98

Next molecule, inhibition to be filled in.
Measured inhibition for this entry CS(=O)(=O)CCNCc1ccc(-c2ccc3ncnc(Nc4ccc(OCc5cccc(F)c5)c(C(F)(F)F)c4)c3c2)o1 on Serine/threonine-protein kinase Nek6 (Homo sapiens): 2.48

----------
Target: Cyclin-dependent kinase 4 (Homo sapiens);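 further: enzyme tested as the CDK4–cyclin D complex, with the value reported as mean percent inhibition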
Details: at 1 µM
Give inhibition for every item shown.
Answers are plain numbers, in %.

> print(dat)
                                   compound  test.result
1  Cc1ccc(NC(=O)c2ccnc(N3CCCC3)c2)cc1-c1ccc(C(=O)NCC2CC2)cc1         4.63
2  COC(=O)Nc1nc2cc(Oc3ccc(NC(=O)Nc4cccc(C(=O)O)c4)cc3)ccc2[nH]1         2.01
3               COc1ccc(-c2ccncc2)cc1C(N)=O         3.66
4  Nc1ncnc2occ(-c3ccc(NC(=O)Nc4cc(C(F)(F)F)cc(C(F)(F)F)c4)cc3)c12         2.23
5  Cc1nnc(-c2ccc(C)c(-c3ccc(C(=O)Nc4cccc(C#N)c4)cc3)c2)o1         0.68

Give me inhibition for each of these compounds, listed below.
1. CS(=O)(=O)CCNCc1nc(-c2ccc3ncnc(Nc4ccc(F)c(Cl)c4)c3c2)cs1
2. COc1ccc(COc2ccc(Cc3cnc(N)nc3N)cc2OC)cc1
3. O=C1Nc2ccc(C(=O)c3ccco3)cc2C1=Cc1cc(Cl)c(O)c(Cl)c1
4. CCCN1CCC(Oc2cc(Nc3nc(Nc4cccc(F)c4C(N)=O)c4cc[nH]c4n3)c(OC)cc2Cl)CC1
5. NS(=O)(=O)c1cccc(-c2ccc3c(NC(=O)C4CC4)n[nH]c3c2)c1

Out:
[0.73, 3.6, 7.07, 3.08, 1.45]

----------
Give inhibition for every item shown.
Target: Phosphatidylinositol 4,5-bisphosphate 3-kinase catalytic subunit delta isoform (Homo sapiens);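 further: values are mean percent inhibition of PI3K-delta, part of the GSK PKIS screen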
Conditions: at 0.1 µM
Answers are plain numbers, in %.

Worked set:
> print(dat)
                               smiles.entry  unit.symbol  test.result
1     Cc1cccc(-c2n[nH]cc2-c2ccc3ncccc3n2)n1            %        -0.15
2  CCN1CCC(CC(=O)Nc2n[nH]c3nc(-c4cccs4)c(Br)cc23)CC1            %         0.69
3  COc1cc2ncn(-c3cc(O[C@@H](C)c4ccccc4Cl)c(C(N)=O)s3)c2cc1OC            %         2.44
4   COc1ccc(COc2ccc(Cc3cnc(N)nc3N)cc2OC)cc1            %        -0.96

Give me inhibition for each of these compounds, listed below.
1. COc1cc2ncn(-c3cc(OCc4ccccc4C(F)(F)F)c(C(N)=O)s3)c2cc1OC
2. O=C1Nc2ccc(C(=O)c3ccco3)cc2C1=Cc1cc(Cl)c(O)c(Cl)c1
3. NS(=O)(=O)c1ccc(N/N=C2\C(=O)Nc3ccc(C(=O)NCCc4c[nH]cn4)cc32)cc1
4. NC(=O)c1ccc(-c2nc(-c3ccccn3)c(-c3ccc4c(c3)OCO4)[nH]2)cc1
5. CS(=O)(=O)Nc1ccc(N/C=C2\C(=O)Nc3ccccc32)cc1

Out:
1: 2.08; 2: 8.04; 3: 1.71; 4: 0.37; 5: -1.26

Consider COc1ccc(-c2coc3ncnc(N)c23)cc1 . Its measured inhibition is 2.89
